Reference source: patent US5344841A

tested on: MCF-7 human breast tumor cell line; test: Human tumor growth inhibition, 3H-thymidine incorporation, MCF-7; type: cell-based; conditions: Homo sapiens, MCF7, 3 h, 3H-thymidine uptake; read-out: IC50 MCF-7
measured-metric: IC50 (µM)
Could you give me the number in µM? Just the number is fine.

Query: Give the reported IC50 for this molecule. O=C1c2c(O)ccc(O)c2C(=O)c2c(NCCNCCO)ccc(NCCNCCO)c21 [MT, reference compound]
Response: 0.005

Query: Write down IC50 measured for item O=C1c2ccccc2C(=O)c2c(NCC(O)CNCc3ccccc3)ccc(NCC(O)CCl)c21 (stereo not drawn)
Response: 7.4

Let us examine a further case.
Query: Tell me IC50 reported for CCCNCC(O)CNc1ccc(NCC(O)CCl)c2c1C(=O)c1ccccc1C2=O (stereo not drawn)
Response: 7.4

* * *

molecular target: protein kinase C; assay: Protein kinase C (PKC) inhibition assay (histone H1 phosphorylation); type: biochemical; conditions: rat brain PKC, histone H1 substrate; Hydrochloride Salt
Where a name gives a salt, the structure may show the parent alone.
measured-metric: pIC50
Units for pIC50: none; it is -log10 of a concentration expressed in mol/L.

Query: Could you please provide reported pIC50 for CCN(CC)CC(O)CNc1ccc(NCC(O)CCl)c2c1C(=O)c1ccccc1C2=O (stereo not shown) [1a-1 (HCl)] ? Thanks!
Response: 3.64

* * *

Biological target: protein kinase C
Test: Protein kinase C (PKC) inhibition assay (histone H1 phosphorylation)
Type: biochemical
Conditions: rat brain PKC, histone H1 substrate; listed as 1a-1 (HCl salt), Hydrochloride Salt
Experimental: The protein kinase C (PKC) assay is designed to duplicated the in vivo conditions required for protein kinase C function. Therefore, pH, salt and cofactor concentrations are similar to physiologic levels. Histone H1 (lysine rich) is used in the assay as the phosphorylation acceptor protein because it is readily available and serves as a good substrate for protein kinase C. […] The amount of phosphorylation is determined by the radioactivity measured in a scintillation counter. […]
Structures can show the parent of a compound that is named as a salt.
measured-metric: pIC50
In plain terms, pIC50 is the concentration in mol/L turned into minus its base-10 logarithm.

Query: Given the molecule CCN(CC)CC(O)CNc1ccc(NCC(O)CCl)c2c1C(=O)c1ccccc1C2=O (stereo not shown) [1a-1 (HCl)] , write its reported pIC50.
Response: 3.64

* * *

system: NHEK human keratinocytes; experiment: Human keratinocyte inhibition, 3H-thymidine incorporation; assay type: cell-based
measured-metric: IC50 (nM)
Give the value in nM but do not write nM after it.

Query: Look up and report measured IC50 for this entry: CCN(CC)CC(O)CNc1ccc(NCC2CO2)c2c1C(=O)c1ccccc1C2=O (centres unmarked)
Response: 40

Others:
Query: Look up and state reported IC50 for CCN(CC)CC(O)CNc1ccc(NCC(O)CCl)c2c1C(=O)c1ccccc1C2=O (centres unmarked)
Response: 160

* * *

tested on: MCF-7/ADR adriamycin resistant line of MCF-7 cells; assay: Human tumor growth inhibition, 3H-thymidine incorporation, MCF-7/ADR; format: cell-based; settings: NCI/ADR-RES, 3H-thymidine uptake
Mark criterion met only for IC50 values smaller than 4 µM; exact matches and larger values are criterion not met.

Query: Dear colleague, could you confirm whether IC50 of CCN(CC)CC(O)CNc1ccc(NCC2CO2)c2c1C(=O)c1ccccc1C2=O (stereo not drawn) [Compound 1b-1] falls below 4 µM? Thanks.
Response: criterion met

Query: Determine whether this molecule shows IC50 lower than 4 µM (ties excluded): CCCNCC(O)CNc1ccc(NCC(O)CCl)c2c1C(=O)c1ccccc1C2=O (stereo not drawn) [Compound 1a-2]
Response: criterion not met

Query: I'd appreciate it if you could check whether O=C1c2ccccc2C(=O)c2c(NCC(O)CNCc3ccccc3)ccc(NCC(O)CCl)c21 (stereo not drawn) [Compound 1a-3] has IC50 smaller than 4 µM.
Response: criterion not met

API: the following record is the query input.
Query: Take the molecule CCN(CC)CC(O)CNc1ccc(NCC(O)CCl)c2c1C(=O)c1ccccc1C2=O (stereo not drawn) [Compound 1a-1] and say whether its IC50 is less than 4 µM.
Response: criterion met

* * *

biological target: protein kinase C; assay: Protein kinase C (PKC) inhibition assay (histone H1 phosphorylation); assay type: biochemical; conditions: rat brain PKC, histone H1 substrate
Counter-ions that a name gives are not always drawn.
A collection of molecules and their measured IC50
Report the figure in µM without appending any unit label.

Query: Give reported IC50 value for CCN(CC)CC(O)CNc1ccc(NCC(O)CO)c2c1C(=O)c1ccccc1C2=O (centres unmarked) [1c-1 (HCl)]
Response: 180

Query: Please report the measured IC50 for O=C1c2ccccc2C(=O)c2c(NCC(O)CNCc3ccccc3)ccc(NCC(O)CCl)c21 (centres unmarked) [1a-3 (HCl)]
Response: 110

Query: Specify IC50 for CCN(CC)CC(O)CNc1ccc(NCC2CO2)c2c1C(=O)c1ccccc1C2=O (centres unmarked) and stop.
Response: 110

Next:
Query: Supply IC50 value. Item: CCN(CC)CC(O)CNc1ccc(NCC(O)CCl)c2c1C(=O)c1ccccc1C2=O (centres unmarked)
Response: 180

Query: Specify IC50 for CCCNCC(O)CNc1ccc(NCC(O)CCl)c2c1C(=O)c1ccccc1C2=O (centres unmarked) [1a-2 (HCl)] and stop.
Response: 160

* * *

test system: 8226/MT Mitoxantrone resistant line of 8226 cells; assay: Human tumor growth inhibition, 3H-thymidine incorporation, 8226/MT; conditions: 8226/MT vs 8226
measured-metric: Resistance Ratio (8226/MT)
Please give the numeric answer without any surrounding text.

Completed entries (count: 3):
Query: In one line, give reported Resistance Ratio (8226/MT) of the entry O=C1c2c(O)ccc(O)c2C(=O)c2c(NCCNCCO)ccc(NCCNCCO)c21 [MT, reference compound] .
Response: 3.5

Query: Return value of Resistance Ratio (8226/MT) for input CCN(CC)CC(O)CNc1ccc(NCC(O)CCl)c2c1C(=O)c1ccccc1C2=O (stereo not shown) [Compound 1a-1] , no commentary.
Response: 0.24

Query: Determine its reported Resistance Ratio (8226/MT): CCN(CC)CC(O)CNc1ccc(NCC2CO2)c2c1C(=O)c1ccccc1C2=O (stereo not shown) [Compound 1b-1]
Response: 0.13

Please find the next compound below.
Query: Note down Resistance Ratio (8226/MT) recorded for COc1cccc2c1C(=O)c1c(O)c3c(c(O)c1C2=O)C[C@@](O)(C(=O)CO)C[C@@H]3O[C@H]1C[C@H](N)[C@H](O)[C@H](C)O1 [ADR, reference compound]
Response: 1

* * *

test system: human neutrophils; assay: Neutrophil superoxide anion (O2-) release assay, PMA-stimulated; assay type: cell-based; settings: PMA-stimulated O2- production; Hydrochloride Salt
Counter-ions that a name gives are not always drawn.
measured-metric: IC50

Query: For CCN(CC)CC(O)CNc1ccc(NCC(O)CCl)c2c1C(=O)c1ccccc1C2=O (stereo not shown) [1a-1 (HCl)] , write its IC50.
Response: > 12.5 µM
